- Test system: corn (Zea mays)
- Procedure summary: Test A postemergence
- Format: in vivo
- Measurement context: Postemergence, 500 g ai/ha; 0 to 100 scale where 0 is no effect and 100 is complete control
- Description: […]
Assay endpoint: Plant response rating, Corn
Number only, no unit.

GET /values?readout=Plant response rating, Corn&item= Cc1ccc(C2CNC(=O)C2C(=O)Nc2ccccc2F)c(F)c1 (racemic) [Compound 509]
0

So what does the record say about Plant response rating, Corn for O=C1NCC(c2cc(C(F)(F)F)ccc2F)C1C(=O)Nc1ccc(F)cc1F (stereo not shown) [Compound 595] ?
60

Please look up its Plant response rating, Corn: COCc1cccc(C2CNC(=O)C2C(=O)Nc2ccccc2Cl)c1 (stereo not shown) [Compound 498]
0

Looking for the measured Plant response rating, Corn of CN1CC(c2cccc(C(F)(F)F)c2)C(C(=O)Nc2cccc(F)c2F)C1=O (stereo not shown) [Compound 636] , can you help?
80

Which Plant response rating, Corn value belongs to CN1CC(c2c(F)cccc2F)C(C(=O)Nc2cccc(F)c2F)C1=O (stereo not shown) [Compound 547] ?
0

# input molecule: Cc1cc(F)ccc1NC(=O)C1C(=O)N(C)CC1c1cccc(C(F)(F)F)c1 (stereo not shown) [Compound 575] ; wanted: its Plant response rating, Corn
80

Item O=C1NCC(c2cc(F)c(F)cc2F)C1C(=O)Nc1ccc(F)c(F)c1F (stereo not shown) [Compound 614] has what recorded Plant response rating, Corn?
20

Would you mind telling me what Plant response rating, Corn value was observed for C=CCN1CC(c2cccc(C(F)(F)F)c2)C(C(=O)Nc2cccc(F)c2F)C1=O (stereo not shown) [Compound 606] ?
0

Reported Plant response rating, Corn for CN1CC(c2ccc(C(F)(F)F)cc2)C(C(=O)Nc2ccccc2S(C)(=O)=O)C1=O (stereo not shown) [Compound 624] : what is it?
40

Reported Plant response rating, Corn, molecule CC(C)Oc1cccc(C2CNC(=O)C2C(=O)Nc2ccccc2F)c1 (stereo not shown) [Compound 552] : ____
50

---

- Test system: foxtail, giant (giant foxtail, Setaria faberii)
- Procedure summary: Test C preemergence
- Assay type: in vivo
- Measurement context: 31 g ai/ha, 0 is no effect, 100 is complete control
- From the text: […]
Assay endpoint: Plant response rating (scale of 0 to 100), Foxtail, Giant
Reply with the value as a number alone.

Which Plant response rating (scale of 0 to 100), Foxtail, Giant reading was recorded for the molecule CN1CC(c2ccc(C(C)(F)F)cc2)C(C(=O)Nc2ccccc2F)C1=O (centres unmarked) ?
95

# Plant response rating (scale of 0 to 100), Foxtail, Giant lookup, item Cc1ccc(C2CN(C)C(=O)C2C(=O)Nc2cccc(F)c2F)cc1 (centres unmarked)
95

What measured Plant response rating (scale of 0 to 100), Foxtail, Giant goes with CN1CC(c2cccc(OC(F)F)c2)C(C(=O)Nc2ccccc2F)C1=O (centres unmarked) ?
90

Requested read-out: Plant response rating (scale of 0 to 100), Foxtail, Giant. Entry: CN1CC(c2cccc(C(F)(F)F)c2)C(C(=O)Nc2cccc(F)c2F)C1=O (centres unmarked)
85

Please report the recorded Plant response rating (scale of 0 to 100), Foxtail, Giant for CN1CC(c2cccc(C(F)(F)F)c2)C(C(=O)Nc2ccccc2S(C)(=O)=O)C1=O (centres unmarked) .
90

---

- System: ryegrass, Italian (Italian ryegrass, Lolium multiflorum)
- Procedure summary: Test A postemergence
- Assay type: in vivo
- Measurement context: Lolium multiflorum, post-emergence, 240 h, Postemergence, 31 g ai/ha; visual injury after approx. 10 d; 0 to 100 scale, 0 no effect, 100 complete control; read-out: Plant response rating, Ryegrass, Italian
Assay endpoint: pest or weed control at 31 g/ha (%)
Provide only the numeric value, understood in %.

Observed pest or weed control at 31 g/ha on ryegrass, Italian (Italian ryegrass, Lolium multiflorum) for CN1C[C@H](c2ccc(Cl)cc2)[C@@H](C(=O)Nc2ccc(F)c(F)c2F)C1=O [Compound 1144] , please.
30

Any idea what pest or weed control at 31 g/ha came out for CSc1ccccc1NC(=O)[C@H]1C(=O)NC[C@@H]1c1ccc(C(F)(F)F)cn1 [Compound 1050] on ryegrass, Italian (Italian ryegrass, Lolium multiflorum)?
0

Which pest or weed control at 31 g/ha is reported with ryegrass, Italian (Italian ryegrass, Lolium multiflorum) for this entry: O=C1NC[C@H](c2ccc(C(F)(F)F)cn2)[C@H]1C(=O)Nc1ccc(F)c(F)c1F [Compound 1105] ?
0

Query pest or weed control at 31 g/ha on ryegrass, Italian (Italian ryegrass, Lolium multiflorum) for COc1cc([C@H]2CN(C)C(=O)[C@@H]2C(=O)Nc2cccc(F)c2F)ccc1C(F)(F)F [Compound 770]
0

Request - read-out pest or weed control at 31 g/ha | tested on ryegrass, Italian (Italian ryegrass, Lolium multiflorum) | molecule CN1C[C@H](c2cc(C(F)F)cs2)[C@@H](C(=O)Nc2cccc(C#N)c2F)C1=O [Compound 1093]
0

What value of pest or weed control at 31 g/ha on ryegrass, Italian (Italian ryegrass, Lolium multiflorum) does COCc1ccccc1NC(=O)[C@H]1C(=O)N(C)C[C@@H]1c1cccc(C(F)(F)F)c1 (racemic) [Compound 1060] have?
50

Write down the reported pest or weed control at 31 g/ha of CN1C[C@H](c2ccc(C(F)(F)F)cn2)[C@@H](C(=O)Nc2cccc(F)c2F)C1=O [Compound 1052] , test system: ryegrass, Italian (Italian ryegrass, Lolium multiflorum).
0

Notebook: pull reported pest or weed control at 31 g/ha for ryegrass, Italian (Italian ryegrass, Lolium multiflorum), entry CSc1ccccc1NC(=O)[C@H]1C(=O)N(C2CC2)CC[C@@H]1c1ccc(F)cc1 [Compound 1005]
0

Item: Cc1ccncc1NC(=O)[C@H]1C(=O)N(C)C[C@@H]1c1cccc(C(F)(F)F)c1 [Compound 1069] Test system: ryegrass, Italian (Italian ryegrass, Lolium multiflorum) Read-out: pest or weed control at 31 g/ha Value: ?
0

Param readout = pest or weed control at 31 g/ha; param system = ryegrass, Italian (Italian ryegrass, Lolium multiflorum); param query = O=C(Nc1cccc(F)c1F)[C@H]1C(=O)N(C2CC2)CC[C@@H]1c1ccc(F)cc1 [Compound 1003] ; response: value
0
